Recorded melting point for the following molecules

// solved cases for melting point follow
1. CN(C)CCOc1ccccc1-c1cc(NC(N)=O)c(C(N)=O)s1	180 °C
2. CN(C)CCOc1ccc(-c2cc(NC(N)=O)c(C(N)=O)s2)cc1	> 300 °C
3. COc1ccc(-c2cc(NC(N)=O)c(C(N)=O)s2)cc1	> 300 °C

Next item in the queue.
Need melting point, item NC(=O)Nc1cc(-c2ccccc2Cl)sc1C(N)=O > 300 °C
